- Tested on: OVCAR-8 ovarian
- assay: NCI tumour cell line growth inhibition, 48 h; in the data active = GI50 below about 0.43 µM; inactive = the rest
Outcomes: active, inactive

[[record]]
compound = "COc1ccc2cc(-c3c(-c4ccncc4)nc(-c4ccc(S(C)=O)cc4)n3C)ccc2c1 (stereo not drawn)"
group_label = "inactive"

[[record]]
compound = "COc1ccc(/C=N/NC(=O)Cn2c(-c3ccc(S(C)(=O)=O)cc3)nc3cc(Cl)ccc32)cc1"
group_label = "inactive"

[[record]]
compound = "O=C([CH-]C(=O)c1ccccc1)c1ccccc1.O=C([CH-]C(=O)c1ccccc1)c1ccccc1.[OH-].[OH-].[Ti+4]"
group_label = "inactive"

[[record]]
compound = "Nc1ccc(-c2nc3ccccc3[nH]2)c2ccccc12"
group_label = "inactive"

[[record]]
compound = "COc1ccc(OC)c(Cn2cc3c(c2)-c2oncc2CC3)c1"
group_label = "inactive"

[[record]]
compound = "C[C@@H]1O[C@@H](O[C@H]2CC[C@@]3(C)[C@H](CCC4[C@@H]3C(O)C[C@]3(C)[C@@H](c5ccc(=O)oc5)CC[C@]43O)C2)[C@H](O)[C@H](O)[C@H]1O (stereo partly drawn)"
group_label = "active"

[[record]]
compound = "COc1ccc2c(c1)OC1=C(C(=O)OC1)C2c1cc(OC)c2c(c1)OCO2 (stereo not drawn)"
group_label = "active"

[[record]]
compound = "CCCCCn1sc(=O)n(Cc2ccc(CNC(=O)OCc3ccc4cccc(O)c4n3)cc2)c1=O"
group_label = "inactive"


* * *

- System: A549 NSCLC
- assay: NCI tumour cell line growth inhibition, 48 h
parameter: GI50

[[record]]
compound = "CCN1C(=O)N(CC)C2C1NN=c1s/c(=C3\\C(=O)N(CCc4ccccc4)c4ccccc43)c(=O)n12 (stereo not given)"
parameter = "GI50"
recorded_result = "0.638 µM"

[[record]]
compound = "O=C(Oc1cccnc1)c1ccsc1Nc1ccnc(C(F)(F)F)c1"
parameter = "GI50"
recorded_result = "7.68 µM"

[[record]]
compound = "Cc1c(C2=C(c3cn(C)c4ccccc34)C(=O)NC2=O)c2ccccc2n1C"
parameter = "GI50"
recorded_result = "1.74 µM"

[[record]]
compound = "O=C1NC(=O)C(c2cccc(Cl)c2)=C1Nc1ccc(O)c(Cl)c1"
parameter = "GI50"
recorded_result = "9.88 µM"

[[record]]
compound = "CC(=O)c1c(C(F)(F)F)n([O-])c2ccc(C)cc2[n+]1=O"
parameter = "GI50"
recorded_result = "4.48 µM"


* * *

- System: RPMI-8226 leukemia
- assay: NCI tumour cell line growth inhibition, 48 h
Below is a list of entries, each paired with its recorded TGI value.
parameter: TGI

[[record]]
molecule = "COC1O[C@@H]2C[C@H]3C(C)(C)CCC[C@]3(C)C3=CCCC1[C@@]32C (some centres undefined)"
parameter = "TGI"
recorded_result = "> 100 µM"

[[record]]
molecule = "CC(C)(C)CN1CCn2c(nc3c(N)nccc32)S1"
parameter = "TGI"
recorded_result = "> 100 µM"

[[record]]
molecule = "N#C/C(=C\\c1c[nH]c2ccccc12)C(=O)c1ccc(O)c(O)c1"
parameter = "TGI"
recorded_result = "> 31.6 µM"

[[record]]
molecule = "O=C(CC(=O)Nc1ccccc1)N/N=C/c1cc(N=Nc2ccc(Br)cc2)ccc1O"
parameter = "TGI"
recorded_result = "> 10 µM"

[[record]]
molecule = "O=C(Cc1ccccc1)NN1C(=O)C(Cl)C1c1ccccc1O (centres undefined)"
parameter = "TGI"
recorded_result = "> 100 µM"

[[record]]
molecule = "Nc1ccc(CCN2CCN(CCCc3ccccc3)CC2)cc1"
parameter = "TGI"
recorded_result = "> 100 µM"

[[record]]
molecule = "COC(=O)C1=C(C)N2[C@H](C(=O)O)CO[C@@]2(C)[C@H](C(=O)OC)[C@H]1c1cccc([N+](=O)[O-])c1"
parameter = "TGI"
recorded_result = "> 100 µM"

[[record]]
molecule = "Cc1ccc2c(=O)cc(-c3ccc(-c4ccccc4)s3)[nH]c2n1"
parameter = "TGI"
recorded_result = "> 100 µM"

[[record]]
molecule = "CC1(O)OC(=O)C2=C1CCC1C2CCC2(C)C(O)CCC12 (centres undefined)"
parameter = "TGI"
recorded_result = "> 100 µM"

[[record]]
molecule = "COC(CN1C=C(Sc2ccccc2)CC1)OC"
parameter = "TGI"
recorded_result = "50.7 µM"

[[record]]
molecule = "CCOc1cc(NC(C)=O)ccc1C(=O)NN1C(=O)C(Cl)C1c1ccco1 (centres undefined)"
parameter = "TGI"
recorded_result = "45.5 µM"

[[record]]
molecule = "Cc1ccc(CC(C)N)cc1 (centres undefined)"
parameter = "TGI"
recorded_result = "> 100 µM"

[[record]]
molecule = "CN(C)CC1CCCC1=O (centres undefined)"
parameter = "TGI"
recorded_result = "1.93 µM"

[[record]]
molecule = "CC[C@@H](/C=C\\CCC(=O)C[C@H](O)CCC=C(C)C)O[Si](C(C)C)(C(C)C)C(C)C"
parameter = "TGI"
recorded_result = "> 100 µM"

[[record]]
molecule = "COc1ccc(/C=N/NC(=O)Cn2c(-c3ccc(S(C)(=O)=O)cc3)nc3cc(Cl)ccc32)cc1"
parameter = "TGI"
recorded_result = "11.4 µM"

[[record]]
molecule = "C#CCOCC12C=CC(O1)C1C(=O)OCC12 (centres undefined)"
parameter = "TGI"
recorded_result = "> 100 µM"

[[record]]
molecule = "COc1ccc(/C=C2\\CN(C)C/C(=C\\c3ccc(OC)c(OC)c3OC)C2=O)c(OC)c1OC"
parameter = "TGI"
recorded_result = "0.211 µM"

[[record]]
molecule = "COc1cc2nc(NCCCCCNC(=O)c3ccco3)nc(N)c2cc1OC"
parameter = "TGI"
recorded_result = "> 100 µM"

[[record]]
molecule = "Cc1nc2ccccc2c(/C=C/c2ccc(Br)cc2)c1C(=O)/C=C/c1ccccc1"
parameter = "TGI"
recorded_result = "5.1 µM"

[[record]]
molecule = "O=C(/C=C/c1csc(-c2ccccc2)n1)NCc1ccc(C(=O)NCc2ccccc2)cc1"
parameter = "TGI"
recorded_result = "> 100 µM"

[[record]]
molecule = "CC(C)=CCC/C(C)=C/CC/C(C)=C/CC/C=C(\\C)CC/C=C(\\C)CCC(=O)Nc1ccn(C2OC(CO)C(O)C2(F)F)c(=O)n1 (centres undefined)"
parameter = "TGI"
recorded_result = "2.49 µM"

[[record]]
molecule = "COC12c3ccccc3-c3ccccc3C1[C@H]1C(=O)OC(=O)[C@H]12 (some centres undefined)"
parameter = "TGI"
recorded_result = "> 10 µM"

[[record]]
molecule = "Cc1cc2c(c(C(=O)O)c1C)-c1cccc(F)c1C2=O"
parameter = "TGI"
recorded_result = "> 100 µM"

[[record]]
molecule = "CN(CCCCCl)P(=O)(OCCS(=O)(=O)CC(NC(=O)CCC(N)C(=O)O)C(=O)NC(C(=O)O)c1ccccc1)OCC1OC(n2cc(F)c(=O)[nH]c2=O)CC1O (centres undefined)"
parameter = "TGI"
recorded_result = "1.48 µM"


* * *

- System: MCF7 breast
- assay: NCI tumour cell line growth inhibition, 48 h
parameter: TGI

[[record]]
molecule = "CC(C)=C/C=C1/CS(=O)(=O)C=C1C"
recorded_result = "> 100 µM"

[[record]]
molecule = "CC(C)[C@@H]1ON1C(C)c1ccccc1 (stereo partly drawn)"
recorded_result = "> 100 µM"

[[record]]
molecule = "COc1ccc2c(c1)OC1=C(C(=O)OC1)C2c1cc(OC)c2c(c1)OCO2 (stereo not drawn)"
recorded_result = "> 100 µM"


* * *

Below is a list of entries, each paired with its recorded TGI value.
- Test system: K-562 leukemia
- assay: NCI tumour cell line growth inhibition, 48 h
parameter: TGI

[[record]]
molecule = "C/C(=C/CC[C@]1(CO)CC[C@]2(CO)[C@H](CC[C@@H]3[C@@]4(C)CC[C@H](OC5OCC(O)C(O)C5OC5OC(CO)C(O)C(O)C5O)C(C)(C)[C@@H]4CC[C@]32C)[C@H]1O)CO (some centres not stated)"
recorded_result = "> 100 µM"

[[record]]
molecule = "COc1ccc(C2[C@@H](Cl)C(=O)N2c2cc(OC)c(OC)c(OC)c2)cc1Cl (some centres not stated)"
recorded_result = "> 100 µM"

[[record]]
molecule = "Cc1cc(N(CCC#N)CCC#N)ccc1/C=C1N=C(/C=C\\c2ccccc2)N(c2ccc(Cl)cc2)C\\1=O"
recorded_result = "> 100 µM"

[[record]]
molecule = "CN(CCCNC(=O)c1nn(-c2ccc(Cl)cc2Cl)c2c1Cc1ccccc1-2)CCCNC(=O)c1nn(-c2ccc(Cl)cc2Cl)c2c1Cc1ccccc1-2"
recorded_result = "2.97 µM"

[[record]]
molecule = "CN1CCC(n2cnc(-c3ccc(F)cc3)c2-c2ccnc(N)n2)CC1"
recorded_result = "> 25 µM"

[[record]]
molecule = "CCN(CC)Cc1sc2nc3ccccc3n2c1-c1ccc(OC)cc1"
recorded_result = "22.7 µM"

[[record]]
molecule = "O=C(/C=C/c1csc(-c2ccccc2)n1)NCc1ccc(C(=O)NCc2ccccc2)cc1"
recorded_result = "> 100 µM"

